# ASSAY METHOD TEXT: Cyclic voltammetry of menadione derivatives
# Assay type: physicochemical
# CONDITION CONTEXT: ΔE = Epa-Epc; DMSO, 0.1 M n-Bu4NPF6, v = 200 mV s^−1
PROPERTY NAME: ΔEp (first wave) (mV)
// note: answer is a bare numeric in mV

Below: 5 compounds and their reported ΔEp (first wave).
COc1ccc(OCC2=C(C)C(=O)c3ccccc3C2=O)cc1C(F)(F)F [Compound 7]: 114
CC1=C(COc2ccc(C#N)cc2)C(=O)c2ccccc2C1=O [Compound 2]: 128
N#Cc1ccc(OCC2=C(C(F)F)C(=O)c3ccccc3C2=O)cc1 [Compound 8]: 170
CC1=C(COc2ccc(C(=O)O)cc2)C(=O)c2ccccc2C1=O [Compound 1]: 96
CC1=C(COc2ccc(Br)cc2)C(=O)c2ccccc2C1=O [Compound 5]: 119

Continue with the compound presented below.
query: Query (compound): COc1ccc(OCC2=C(C(F)F)C(=O)c3ccccc3C2=O)cc1C(F)(F)F [Compound 9] ; field requested: ΔEp (first wave)
result: 111

* * *

# ASSAY METHOD TEXT: Cyclic voltammetry of menadione derivatives
# Assay type: physicochemical
# CONDITION CONTEXT: E½ = (Epc+Epa)/2; second wave; irr: irreversible reduction
PROPERTY NAME: E^2½

CC1=C(COc2ccc(C(=O)O)cc2)C(=O)c2ccccc2C1=O [Compound 1]: irr
CC1=C(COc2ccc(Br)cc2)C(=O)c2ccccc2C1=O [Compound 5]: irr
COc1ccc(OCC2=C(C)C(=O)c3ccccc3C2=O)cc1C(F)(F)F [Compound 7]: −1.126 V
CC1=C(COc2ccc(C#N)cc2)C(=O)c2ccccc2C1=O [Compound 2]: −1.127 V

* * *

Consider the following molecules and their measured IC50 readings.
# ASSAY TARGET: human glutathione reductase (hGR) (Homo sapiens)
# Sequence (P00390 1-479 isoform P00390-2): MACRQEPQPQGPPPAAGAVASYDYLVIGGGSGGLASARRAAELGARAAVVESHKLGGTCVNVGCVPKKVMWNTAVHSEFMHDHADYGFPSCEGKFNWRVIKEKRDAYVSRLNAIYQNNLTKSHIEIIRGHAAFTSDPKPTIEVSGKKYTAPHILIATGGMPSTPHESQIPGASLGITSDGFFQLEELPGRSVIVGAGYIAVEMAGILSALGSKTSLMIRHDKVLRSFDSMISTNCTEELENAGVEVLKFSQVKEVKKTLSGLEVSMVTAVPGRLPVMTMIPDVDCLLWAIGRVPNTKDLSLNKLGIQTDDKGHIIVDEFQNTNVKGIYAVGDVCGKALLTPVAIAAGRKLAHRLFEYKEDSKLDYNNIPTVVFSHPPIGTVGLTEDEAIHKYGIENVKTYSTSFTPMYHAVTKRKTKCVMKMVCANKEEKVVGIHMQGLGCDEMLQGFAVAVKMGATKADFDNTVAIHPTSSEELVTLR
// note: answer is a bare numeric in µM

query: Query (molecule): CC1=C(COc2ccc(C#N)cc2)C(=O)c2ccccc2C1=O [Compound 2] ; field requested: IC50
result: 8.5

* * *

Consider the following compounds and their measured IC50 readings.
# ASSAY TARGET: human glutathione reductase (hGR) (Homo sapiens)
Put your answer as a value accompanied by its unit after it.

COc1ccc(OCC2=C(C)C(=O)c3ccccc3C2=O)cc1C(F)(F)F: 12 µM
CC1=C(COc2ccc(Cl)cc2)C(=O)c2ccccc2C1=O: 5.5 µM
CC1=C(COc2ccc(C(=O)O)cc2)C(=O)c2ccccc2C1=O: 2.3 µM

query: Query (compound): CC1=C(COc2cccc(C(F)(F)F)c2)C(=O)c2ccccc2C1=O ; field requested: IC50
result: 0.6 µM
